pIC50: −log10 of the molar value.
Dear all, I have gathered published pIC50 values for Cytochrome P450 2C19 (Homo sapiens); the list follows.

Below, each entry is followed by its recorded pIC50 result.
CC(F)(F)[C@H]1OC(N)=N[C@](C)(c2cc(NC(=O)c3cnc(OCC(F)F)cn3)ccc2F)[C@H]1F
≤ 4.70
C[C@@H](C#N)NC(=O)c1ccc(-c2nc(Nc3cnn(C4CCNCC4)c3)ncc2Cl)cc1
< 4.30
C[C@@H](c1ccccc1-c1cc(F)cc(F)c1)n1cncc1C(=O)N1CCC2NCCO[C@@H]2C1 (some centres unmarked)
< 5.00
COc1cc2ccc(C(C(C)C)n3ncnn3)cc2cc1OC (centres unmarked)
4.52

Batch of 4 compounds: report pIC50 for each.
1. CCCCOCCOc1ccc(-c2ccc3c(c2)/C=C(/C(=O)Nc2ccc([S@+]([O-])Cc4c(C)ncn4CC)cc2)CCCN3CC2CCOCC2)cc1
2. C[C@H](c1ccc(F)cc1)n1cncc1CN1CCN(S(=O)(=O)c2ccc(N3CCNCC3)cn2)CC1
3. O=C1COc2cc(NCc3cccc(C(=O)Nc4cccnc4)c3)ccc2N1
4. C[C@H]1SC(N)=N[C@](C)(c2nc(NC(=O)c3cnc(OCF)cn3)ccc2F)[C@H]1F

[5.85, 5.43, "< 4.30", "≤ 4.70"]

----------
Dear all, I have gathered published IC50 values for Cytochrome P450 2C19 (Homo sapiens, UniProt P33261); the list follows.

C[C@H]1SC(N)=N[C@](C)(c2cc(NC(=O)c3cnc(C(F)F)cn3)ccc2F)[C@H]1F
≥ 20 µM

Batch of 5 molecules: report IC50 for each.
1. C[C@H]1SC(N)=N[C@](C)(c2cccc(NC(=O)c3ccc(F)cn3)c2)[C@H]1F
2. Cc1ccc(-c2c([C@H](OC(C)(C)C)C(=O)O)c(C)c3c4c2cc(-c2ccnc(-c5ccc6c(cnn6C)c5)c2)n4CCN3CCN(C)C)cc1
3. COc1ccc(Nc2ccc(C(=O)c3c[nH]c4ncnc(NC5CCCC5)c34)c(F)n2)cn1
4. CC[C@@H](C#N)NC(=O)c1ccc(-c2nc(Nc3cnn(C(C)C(F)(F)F)c3)ncc2C)cc1 (stereo partly drawn)
5. CCOc1ncnc2[nH]cc(Cc3ccc(Nc4cnn(CC)c4)nc3F)c12

1: ≥ 20 µM; 2: > 20 µM; 3: 5 to 10 µM; 4: > 50 µM; 5: > 10 µM

----------
Dear all, I have gathered published pIC50 values for Cytochrome P450 2C19 (Homo sapiens, UniProt P33261); the list follows.
pIC50: −log10 of the molar value.

Below, each entry is followed by its recorded pIC50 result.
COC[C@@H](C#N)NC(=O)c1ccc(-c2nc(Nc3cnn(C4CCN(C)CC4)c3)ncc2C)cc1
< 4.30
C[C@@H](c1ccccc1-c1ccccc1OC(F)(F)F)n1cncc1C(=O)N1CCC2NCCO[C@@H]2C1 (stereo partly shown)
< 5.00

Batch of 2 compounds: report pIC50 for each.
1. COc1ccc(Nc2ccc(C(=O)c3c[nH]c4ncnc(NC5CCCCC5)c34)c(F)n2)cn1
2. CCNc1ncnc2[nH]cc(C(=O)c3cnc(NC4CCC(F)(F)CC4)c(F)c3)c12

< 5.00
< 5.00

----------
pIC50: −log10 of the molar value.
Dear all, I have gathered published pIC50 values for Cytochrome P450 2C19 (Homo sapiens); the list follows.

Below, each entry is followed by its recorded pIC50 result.
Cc1c(F)cccc1Oc1cc(=O)n(C)c(Nc2ccc(I)cc2F)c1C(N)=O
< 5.00
C[C@@H](c1ccc(-c2ccc(C#N)cn2)cc1)N1CC[C@](CCCO)(c2ccc(F)cc2)OC1=O
< 4.30
CS(=O)(=O)CC(=O)Nc1c(-c2ccc(F)c(F)c2)nn2c1C(=O)N[C@@]1(CCc3cc(F)cc(F)c31)C2
< 4.70

// next entry
// pIC50 lookup, key: `COc1ccc(C(=O)Nc2ccc(F)c([C@@]3(C)N=C(N)S[C@H](C)[C@@H]3F)c2)nc1`
≤ 4.70

----------
Dear all, I have gathered published pIC50 values for Cytochrome P450 2C19 (Homo sapiens); the list follows.
pIC50: −log10 of the molar value.

COc1ccc(Nc2ccc(C(=O)c3c[nH]c4ncnc(NC(C)C)c34)c(F)n2)cn1
< 5.00
Cc1cc(Nc2ncc(Cl)c(Nc3cn(C)nc3S(=O)(=O)C(C)C)n2)c(OC2CC2)cc1C1CCCN(C)C1 (stereo not drawn)
< 5.00
CNc1ncnc2[nH]cc(C(=O)c3ccc(NC4CCC(F)(F)CC4)nc3Cl)c12
< 5.00
CC(C)Oc1ccc(S(=O)(=O)N2C[C@@H](C)[C@@H](n3nc(CC(=O)O)c4ccc(F)cc43)C2)cc1
< 4.70
C[C@H](c1ccc(F)cc1)n1cncc1CN1CCN(S(=O)(=O)c2cnc(N3CC[C@@H](N)[C@H](F)C3)s2)CC1
5.10
C[C@]1(c2cc(NC(=O)c3ccc(C#N)cn3)ccc2F)N=C(N)O[C@H]2[C@@H]1OCC2(F)F
≤ 4.70

Batch of 3 compounds: report pIC50 for each.
1. CO[C@H]1[C@@H](CF)OC(N)=N[C@]1(C)c1cc(NC(=O)c2ccc(F)cn2)ccc1F
2. CC(C)(C)S(=O)(=O)Nc1cnc(C(=O)Nc2ccc(F)c([C@]3(C)C=CSC(N)=N3)c2)cn1
3. Cc1cncc(Oc2cc(=O)n(C)c(Nc3ccc(I)cc3F)c2C(N)=O)c1

1. ≤ 4.70
2. < 4.70
3. < 5.00

Batch of 6 compounds: report pIC50 for each.
1. CC1(C)SC(N2CCOc3cccnc32)=NC1=O
2. C=C1C[C@@](C)(c2cncc(NC(=O)c3cnc(OC)cn3)c2)N=C(N)S1
3. CC1CN2C[C@H](O)C[C@H]2CN1c1ncc(S(=O)(=O)N2CCN(Cc3cncn3[C@H](C)c3ccc(F)cc3)CC2)s1 (single isomer, unassigned)
4. O=C(O)CNC(=O)Nc1cnc2c(c1)OCCN2C(=O)Nc1ccccc1
5. Cc1cnc2[nH]cc(C(=O)c3ccc(Nc4ccc(C5CC5)nc4)nc3F)c2c1
6. C[C@@H](c1ccc(-c2ncc(C(=O)NC3CC3)s2)cc1)N1CC[C@](CC(C)(C)O)(c2ccccc2)OC1=O

1: < 4.70; 2: < 4.70; 3: 5.64; 4: < 4.70; 5: < 5.00; 6: 4.32

----------
Dear all, I have gathered published IC50 values for Cytochrome P450 2C19 (Homo sapiens); the list follows.

Batch of 7 compounds: report IC50 for each.
1. C[C@H](c1ccc(F)cc1)n1cnnc1CN1CCN(S(=O)(=O)c2cnc(N3CCN4C[C@H](O)C[C@H]4C3)s2)CC1
2. Cc1cnc2[nH]cc(Cc3cnc(Nc4ccc(F)cc4)nc3)c2c1
3. CC(C)S(=O)(=O)c1nn(C)cc1Nc1nc(Nc2cc(F)c(C3CCN(C)CC3)cc2OC2CC2)ncc1Cl
4. CNC(=O)c1ccc(-c2ccc([C@H](C)N3CC[C@](CC(C)(C)O)(c4ccccc4)OC3=O)cc2)cn1
5. N#Cc1ccc(C(=O)Nc2ccc(F)c(C34COCC3COC(N)=N4)c2)nc1 (racemic)
6. CNc1ncnc2[nH]cc(C(=O)c3ccc(Nc4ccc(C)nc4)nc3F)c12
7. C[C@@H](c1ccccc1-c1ccc(F)cc1)n1cncc1C(=O)N1CCC2NC(=O)COC2(C)C1 (stereo partly shown)

1: > 10 µM; 2: > 10 µM; 3: > 10 µM; 4: 5.9 µM; 5: > 20 µM; 6: < 5 µM; 7: > 10 µM

----------
Dear all, I have gathered published IC50 values for Cytochrome P450 2C19 (Homo sapiens, UniProt P33261); the list follows.

Batch of 7 compounds: report IC50 for each.
1. Cn1c2c(c(=O)c3ccccc31)CN(Cc1ccccc1)CC2
2. CCNc1ncnc2[nH]cc(C(=O)c3ccc(NC4CCC(F)(F)CC4)nc3Cl)c12
3. COc1cncc(Nc2ccc(C(=O)c3c[nH]c4ncnc(NC5CC5)c34)c(F)n2)c1
4. CN(C)C(=O)c1cc(COC2=NN=C(Nc3ccc(Cl)cc3)C3C=COC23)ccn1 (centres unmarked)
5. CC(C)S(=O)(=O)c1nn(C)cc1Nc1nc(Nc2ccc(C3CCN(C)CC3)cc2OC2CC2)ncc1Cl
6. C[C@H]1[C@@H](C(F)(F)F)OC(N)=N[C@]1(C)c1cc(NC(=O)c2ccc(C#N)cn2)ccc1F
7. CNC(=O)c1cc(COC2=NN=C(Nc3ccc(Cl)cc3)C3C=COC23)ccn1 (centres unmarked)

20 to 50 µM
> 10 µM
< 5 µM
> 20 µM
> 10 µM
≥ 20 µM
> 20 µM

Batch of 6 compounds: report IC50 for each.
1. CO[C@H]1[C@@H](CF)OC(N)=N[C@]1(C)c1cc(NC(=O)c2ccc(Cl)cn2)ccc1F
2. Clc1ccc(NC2=NN=C(OCc3ccncc3)C3OC=CC23)cc1 (centres unmarked)
3. COc1ccc(Nc2ccc(Cc3c[nH]c4ncc(C)cc34)c(F)n2)cn1
4. C=CC(=O)N1CC(n2c(=O)n(-c3ccc(Oc4ccccc4)cc3)c3c(N)ncnc32)C1
5. CC(=O)Nc1cc2n(n1)CCN2c1ccc2c(c1)CCC(=O)N2C
6. CC(C)CS(=O)(=O)c1nn(C)cc1Nc1nc(Nc2ccc(C3CCN(C)CC3)cc2OC2CC2)ncc1Cl

1: ≥ 20 µM; 2: 1.7 µM; 3: < 5 µM; 4: > 10 µM; 5: > 20 µM; 6: > 10 µM

Batch of 6 compounds: report IC50 for each.
1. CCc1ccc(Nc2ccc(C(=O)c3c[nH]c4ncnc(NC5CC5)c34)c(F)n2)cn1
2. CO[C@H]1[C@@H](C)SC(N)=N[C@]1(C)c1cc(NC(=O)c2ccc(C#N)cn2)ccc1F
3. CCOc1ccc(Nc2ccc(Cc3c[nH]c4ncnc(OC)c34)c(F)n2)cn1
4. CCc1ccc(Nc2ccc(C(=O)c3c[nH]c4ncnc(N[C@@H](C)c5ccc(F)cc5)c34)c(F)n2)cn1
5. C[C@@H]1CN(C2CCN(C(=O)c3cncn3[C@@H](C)c3ccccc3-c3ccc(F)cc3)CC2)CC[C@H]1O
6. CC(C)S(=O)(=O)c1nn(C2CC2)cc1Nc1nc(Nc2cc(F)c(C3CCN(C)CC3)cc2OC2CC2)ncc1Cl

1: > 10 µM; 2: ≥ 20 µM; 3: > 10 µM; 4: < 5 µM; 5: > 10 µM; 6: > 10 µM

Batch of 6 compounds: report IC50 for each.
1. C[C@]1(c2cc(NC(=O)c3ccc(C#N)cn3)ccc2F)N=C(N)OCC12CC(F)(F)C2
2. CC[C@@H](C#N)NC(=O)c1ccc(-c2nc(Nc3cnn(C4CCN(C)CC4)c3)ncc2Cl)cc1
3. C[C@H](c1ccc(F)cc1)n1cncc1CN1CCN(S(=O)(=O)c2cnc(N3C[C@@H]4C[C@@H](O)CN4C[C@@H]3C)s2)CC1
4. CCc1ccc(Nc2ccc(C(=O)c3c[nH]c4ncnc(NC5CCC(F)(F)CC5)c34)c(F)n2)cn1
5. O=S(=O)(NCC1CC1)Nc1ncnc(OCCOc2ncc(Br)cn2)c1-c1ccc2scnc2c1
6. CCCNc1ncnc2[nH]cc(C(=O)c3ccc(Nc4ccc(C)nc4)nc3F)c12

1: ≥ 20 µM; 2: 24 µM; 3: ≥ 10 µM; 4: < 5 µM; 5: > 50 µM; 6: > 10 µM

Batch of 3 compounds: report IC50 for each.
1. Cc1nc(C)c(-c2csc(NC(=O)Cn3cc(Cl)cn3)n2)s1
2. CNC(=O)Nc1cc2n(n1)CCN2c1cc(C(=O)N2CCOCC2)cc(-c2ccc(N)nc2)c1
3. CCC(C)Nc1ncnc2[nH]cc(C(=O)c3ccc(Nc4ccc(OC)nc4)nc3F)c12 (centres unmarked)

> 20 µM
> 20 µM
> 10 µM

Batch of 4 compounds: report IC50 for each.
1. NC(=O)c1cc(COc2nnc(Nc3ccc(Cl)cc3)c3ccccc23)ccn1
2. CNC(=O)c1cc(Cc2cnc(Nc3ccc(Cl)cc3)c3ccccc23)ccn1
3. COc1cc(F)cc([C@@H](CO)NC(=O)[C@@H](C)N2Cc3ccc(-c4nc(NC5CCOC5)ncc4F)c(F)c3C2=O)c1 (some centres unmarked)
4. COc1ncnc2[nH]cc(Cc3ccc(Nc4ccc(Cl)nc4)nc3F)c12

["5.4 µM", "0.85 µM", "> 10 µM", "> 10 µM"]
